// provenance: ChEMBL document CHEMBL1139338

experiment: Inhibition of human intestinal carboxylesterase after 5 mins
Everything with pKi lower than 6 is 0.0; everything else, including exactly 6, is 1.0.

Please review the entries below; each comes with its answer.
CCCCCCCCSCC(=O)C(F)(F)F    1.0
CCCCCC[S+]([O-])CC(O)(O)C(F)(F)F (stereo not given)    0.0
CCCCCCCCCCC(=O)C(F)(F)F    1.0
CCCCCCCCCCCCSCC(=O)C(F)(F)F    1.0

# input Hi team, for CCCCCCCC[S+]([O-])CC(O)(O)C(F)(F)F (stereo not given) , is the recorded pKi at or above 6?
# output 0.0

# input Dear colleague, could you confirm whether CCCCCCOCC(O)(O)C(F)(F)F has pKi at or above 6?
# output 0.0

# input Reported pKi reaches at least 6 for CCCCCCCCS(=O)(=O)CC(O)(O)C(F)(F)F ?
# output 0.0

# input Exam item: decide whether the reported pKi for CCCCCCCCCCCCS(=O)(=O)CC(O)(O)C(F)(F)F is at least 6.
# output 1.0

# input Evaluate CCCCSCC(=O)C(F)(F)F : pKi at minimum 6?
# output 0.0
